Measured pKi, listed per entry for reference.
- procedure_details: Inhibition of PGPH-like activity of 20S proteasome in human erythrocytes using Z-Leu-Leu-Glu-AMC as substrate by fluorescence assay
pKi here is simply -log10 of the concentration when that concentration is written in mol/L.

{"input_smiles": "CC(C)C[C@H](NC(=O)CCn1ccc2ccccc2c1=O)B(O)O", "pKi": 6.62}
{"input_smiles": "CC(C)C[C@H](NC(=O)Cn1ccc2ccccc2c1=O)B(O)O", "pKi": 6.00}
{"input_smiles": "CC(C)C[C@H](NC(=O)CCn1ccc2ccc(Br)cc2c1=O)B(O)O", "pKi": 5.69}
{"input_smiles": "CC(C)C[C@H](NC(=O)CCn1ccc2ncccc2c1=O)B(O)O", "pKi": 6.16}
{"input_smiles": "COc1cc2ccn(CCC(=O)N[C@@H](CC(C)C)B(O)O)c(=O)c2cc1OC", "pKi": 5.90}

Now let's try a different one.
Entry CC(C)C[C@H](NC(=O)Cn1ccc2ccc(Br)cc2c1=O)B(O)O has what pKi?
6.51
